Recorded values, source paper PMC6753678.

# System: P. falciparum late stage (stages IV-V) gametocytes
# Experimental Details: P. falciparum late stage gametocyte ATP depletion assay (Pf GC-ATP)
# Condition Details: 1: YES; 0: NO; >10-fold selectivity over cytotoxicity
In this section we review reported Is compound selective in assay? Pf GC-ATP active? values for a set of molecules.
Property Label: Is compound selective in assay? Pf GC-ATP active?

# Molecule, Result
rows = [
    ("CCN(CC)CCCNc1ncc2c(-c3ccc(NC(=O)Nc4cc(C(F)(F)F)ccc4F)cc3)nn(C)c2n1.O=C(O)C(F)(F)F [TCMDC-141583]", "0 (0: NO)"),
    ("Cc1cccc2nc(-c3ccc(-c4ccc(CN5CCC(CCN6CCCCC6)CC5)cc4)cc3)[nH]c12.O=C(O)C(F)(F)F [TCMDC-133929]", "1 (1: YES)"),
    ("CC(C)CNCc1ccc(-c2ccc(CN(CCCN3CCN(C)CC3)C(=O)/C=C/c3ccccc3)cc2)cc1.O=C(O)C(F)(F)F [TCMDC-140546]", "0 (0: NO)"),
    ("Nc1cc(/C=C/c2ccc([N+](=O)[O-])s2)nc2ccccc12 [TCMDC-142296]", "1 (1: YES)"),
    ("COc1ccc2nc3cc(Cl)ccc3c(NCCCCCCNc3c4ccc(Cl)cc4nc4ccc(OC)cc34)c2c1.Cl.Cl.Cl.Cl [TCMDC-137503]", "1 (1: YES)"),
    ("Cc1cccc2nc(-c3ccc(-c4cccc(CN5CCC(CCN6CCCCC6)CC5)c4)s3)[nH]c12.O=C(O)C(F)(F)F [TCMDC-133923]", "0 (0: NO)"),
    ("CCN(CC)Cc1cc(Nc2c3ccc(Cl)cc3nc3cccc(OC)c23)ccc1O.Cl [TCMDC-139222]", "1 (1: YES)"),
]

---

In this section we review reported log10 Unified cytotox values for a set of compounds.
# System: HepG2 cells
# Experimental Details: HepG2 cytotoxicity assay
# Condition Details: HepG2 values of the three screens unified
Property Label: log10 Unified cytotox (log10 of the value in µM)

# Smiles Representation, Measured Number
measured = [
    ("COc1ccc2nccc([C@@H](O)CN3CCC(NCc4cc5c(F)ccc(F)c5[nH]4)CC3)c2c1.O=C(O)C(=O)O", 1.17),
    ("COc1ccc2nccc([C@@H](O)CN3CCC(NC(=O)c4ccc5cc[nH]c5c4)CC3)c2c1.CS(=O)(=O)O", 2.00),
    ("COCCn1c(-c2cccc(Cl)c2)nn(-c2ccc([N+](=O)[O-])cc2C#N)c1=S", 2.00),
    ("Cc1[nH]c(C)c(-c2ccc(-c3ccccc3Cl)nc2)c(=O)c1Br", -0.85),
    ("Cc1[nH]c(C)c(-c2ccc(OCc3cc(F)cc(F)c3)nc2)c(=O)c1Cl", 0.89),
    ("C=CCn1ccc2c3c(N)nc(N)nc3ccc21", 0.00),
    ("COc1ccc(Oc2ccc(-c3c(C)[nH]c(C)c(Cl)c3=O)cc2)cc1", 2.00),
    ("Nc1nc(N)c2c(ccc3c2ccn3Cc2cccc3ccccc23)n1", -2.77),
]

---

# Tested on: HepG2 cells
# Experimental Details: HepG2 cytotoxicity assay
# Condition Details: unified HepG2 value across the three screens
Classification by Unified cytotox | ranges: lowest (below 10 µM), middle (10 µM to below 50 µM), highest (50 µM or more)

# Compound, Label
measured = [
    ("O=C(NCC1CC1)C1CCN(C(c2ccc(Cl)cc2)c2ccc(Cl)cc2)CC1", "highest"),
    ("Cc1cccc(Nc2nc(NCCCCN)nc3cc[nH]c(=O)c23)c1.O=C(O)C(F)(F)F", "middle"),
    ("CN1CCN(c2ccc(Nc3nccc(-c4cnn5ncccc45)n3)cc2Cl)CC1", "middle"),
    ("COc1cc(Nc2ncc3c(C)nc(-c4cccc(Nc5ccc(CN6CCS(=O)(=O)CC6)cc5)c4)n3n2)cc(OC)c1OC", "middle"),
    ("CCCCCCCCc1c(C)[nH]c(C)c(Cl)c1=O", "lowest"),
    ("COc1cc(NC(=O)Nc2ccc(Br)cc2C(=O)Nc2ccc(Br)cc2)cc(OC)c1OC", "highest"),
    ("Cc1cc(C(=O)OCC(=O)Nc2c(C)n(C)n(-c3ccccc3)c2=O)c(C)n1-c1ccc(F)cc1", "middle"),
    ("CCCCN(C)CC#Cc1ccc2[nH]c(C)c(Cl)c(=O)c2c1", "lowest"),
    ("OCCc1ccc(Nc2nccc(-c3nnc4ccccn34)n2)cc1", "highest"),
    ("CC(C)c1ccc(NC(=S)NN=Cc2ccccn2)cc1", "middle"),
    ("Cc1cc(SC(C)(C)C)cc2c(Cl)c(C(N)=O)cnc12", "lowest"),
    ("COc1ccc(NS(=O)(=O)c2cc(NC(=O)Cn3ccccc3=O)ccc2N2CCCCC2)cc1", "highest"),
    ("O=C(Nc1ccc(OC2CCN(Cc3ccc(F)cc3)C2)c(Cl)c1)c1ccc(F)cc1.O=C(O)C(F)(F)F (stereo not drawn)", "middle"),
    ("CC(C)Nc1nc(NC2CCCCC2)nc(N2CCCCCCC2)n1", "middle"),
    ("Cc1[nH]c2ccccc2c1C(=O)C(C)Sc1nnc(-c2ccccc2F)o1 (stereo not drawn)", "highest"),
    ("c1ccc(CCNc2ncnc3c2[nH]c2ccccc23)cc1", "middle"),
    ("CCOc1cccc(C(=O)Nc2nonc2-c2ccc(OC)c(OC)c2)c1", "lowest"),
    ("CN1Cc2cc(NC(=O)/C=C/c3ccccc3Cl)ccc2C(C)(C)C1.Cl", "middle"),
]

---

# Test system: HepG2 cells
# Experimental Details: HepG2 cytotoxicity assay
# Condition Details: HepG2 cytotoxicity unified across the three screens
In this section we review reported Unified cytotox values for a set of molecules.

# Molecule, Display Unit, Unified cytotox
records = [
    ("CC(Cc1ccc(CNC(=O)c2ccc(CC(C)NCCc3cccc(Cl)c3)cc2)cc1)NCCc1cccc(Cl)c1 (stereo not shown) [TCMDC-139659]", "µM", 2.71),
    ("CC(C)(C)c1ccc(-c2nc3c(ccc4nc(N)nc(N)c43)[nH]2)cc1.Cl [TCMDC-137984]", "µM", 2.98),
    ("COc1cc2nc(NCCCN3CCCCC3)nc(NCc3ccccc3)c2cc1OC [TCMDC-132012]", "µM", 7.89),
    ("CCCOc1ccc(CCNCCCCNCCc2ccc(OCCC)c3ccccc23)c2ccccc12.CS(=O)(=O)O [TCMDC-137952]", "µM", 2.38),
    ("COc1cc2nc(N3CCC(CCCC4CCNCC4)CC3)nc(NCc3ccccn3)c2cc1OC.O=C(O)C(F)(F)F [TCMDC-138494]", "µM", 14.55),
    ("Fc1ccc(NC(S)=NN=Cc2ccccn2)cc1 [TCMDC-125521]", "µM", 100.00),
    ("Cc1occc1C(=O)Nc1nc(-c2ccccn2)nc2ccsc12 [TCMDC-135244]", "µM", 0.87),
    ("O=C(c1ccc([N+](=O)[O-])o1)N1CCC(Cc2ccc(C(F)(F)F)cc2)CC1 [TCMDC-124805]", "µM", 20.58),
    ("O=C(O)CCSSc1cccc[n+]1[O-] [TCMDC-141973]", "µM", 19.25),
    ("COc1ccc(CCNCCCCCCNCCc2ccc(Cl)cc2)c(Cl)c1OC.Cl [TCMDC-131272]", "µM", 5.87),
    ("CCCCOc1ccc(CNCCCCCCNCc2ccc(OCCCC)c3ccccc23)c2ccccc12.CS(=O)(=O)O [TCMDC-137281]", "µM", 2.67),
    ("COc1cc2nc(N3CCN(C(=O)c4c(Cl)nsc4-c4ccccc4Cl)CC3)nc(N)c2cc1OC.O=C(O)C(F)(F)F [TCMDC-138186]", "µM", 7.04),
    ("COc1cc2ccccc2c(CNCCCCCCNCc2c(OC)c(OC)cc3ccccc23)c1OC.CS(=O)(=O)O [TCMDC-137795]", "µM", 4.66),
    ("c1cc(Nc2nc(-c3ccc(-c4csc(Nc5ccncc5)n4)cc3)cs2)ccn1 [TCMDC-139725]", "µM", 9.78),
    ("COc1ccc(CNCCCCCCNCc2ccc(OC)c3ccccc23)c2ccccc12.Cl [TCMDC-137631]", "µM", 2.44),
    ("CC(C)(C)c1ccc(CN2CCC(CNC(=O)c3cc(-c4ccccc4Cl)cs3)C2)cc1.O=C(O)C(F)(F)F (stereo not shown) [TCMDC-134445]", "µM", 7.23),
    ("COc1cc2ccccc2cc1CCNCCCCNCCc1cc2ccccc2cc1OC.CS(=O)(=O)O [TCMDC-137944]", "µM", 2.53),
    ("COc1cc2c(cc1CCNCCCCNCCc1cc3c(cc1OC)CCCC3)CCCC2.CS(=O)(=O)O [TCMDC-137319]", "µM", 1.86),
    ("Br.CCCCc1ccc(CCNCCCCCCNCCc2ccc(O)c(O)c2)cc1 [TCMDC-131281]", "µM", 6.41),
    ("CS(=O)(=O)O.FC(F)(F)COc1ccc(CCNCCCCNCCc2ccc(OCC(F)(F)F)c3ccccc23)c2ccccc12 [TCMDC-137282]", "µM", 2.33),
    ("CCN(CC)CCN(Cc1ccc(-c2ccc(C(F)(F)F)cc2)cc1)C(=O)Cn1cc(Cc2cnn(C)c2)c(=O)nc1/C=C/c1cccc(F)c1F [TCMDC-140964]", "µM", 12.05),
    ("FC(F)(F)c1ccc2[nH]c(-c3ccc(-c4cccc(CN5CCC(CCN6CCCCC6)CC5)c4)cc3)nc2c1.O=C(O)C(F)(F)F [TCMDC-133941]", "µM", 3.93),
    ("N=C(/N=C(/NCCCCCCN/C(=N/C(=N)NCc1ccc(Cl)c(Cl)c1)N1CCCCC1)N1CCCCC1)NCc1ccc(Cl)c(Cl)c1 [TCMDC-131816]", "µM", 43.18),
    ("CC1CCCCN1CCCNc1nc(NCc2ccccc2)c2ccccc2n1 (stereo not shown) [TCMDC-137771]", "µM", 17.35),
    ("NCc1ccc(CNCc2cccc(-c3ccc(-c4nc5cc(C(F)(F)F)ccc5[nH]4)cc3)c2)cc1.O=C(O)C(F)(F)F [TCMDC-132811]", "µM", 19.47),
    ("COc1cc2nc(N3CCC(CNC(=O)c4ccc(-c5ccc(-c6noc(C)n6)cc5)cc4)CC3)nc(N)c2cc1OC [TCMDC-138754]", "µM", 4.61),
    ("CCn1c(-c2nonc2N)nc2c(-c3cccc(NC(=O)Nc4cccc(Cl)c4)c3)ncc(OCCCN)c21.O=C(O)C(F)(F)F [TCMDC-136193]", "µM", 47.43),
    ("COc1ccc(CCNCCCCCCNCCc2ccc(-c3ccccc3)cc2)cc1OC.Cl [TCMDC-131267]", "µM", 5.07),
    ("CC(=O)c1ccc2nc[nH]c(=O)c2c1 [TCMDC-138172]", "µM", 3.74),
    ("CS(=O)(=O)O.FC(F)(F)COc1ccc2ccccc2c1CNCCCCCCNCc1c(OCC(F)(F)F)ccc2ccccc12 [TCMDC-137816]", "µM", 2.44),
    ("CCOc1ccc2nc3cc(NC(=O)c4ccco4)ccc3c(N)c2c1 [TCMDC-125004]", "µM", 17.72),
]
